# PROCEDURE DETAILS: Superoxide scavenging assay
# Format: biochemical
# CONDITION SET: 40 µM, 590 nm
For each entry below, report its % Inhibition, superoxide value.
Entry format: amount then unit.

Query :: Recorded % Inhibition, superoxide of Oc1ccccc1N=Cc1ccc(N2CCOCC2)cc1 , please.
Result :: 05.23%

Query :: Same question, [O-]c1ccccc1N=Cc1ccc(N2CCOCC2)cc1.[O-]c1ccccc1N=Cc1ccc(N2CCOCC2)cc1.[Zn+2].c1cnc2c(c1)ccc1cccnc12 [(2b), [Zn^II(L)2(phen)]] this time
Result :: 06.70%

Query :: Note, next up: O=C1O[C@H]([C@@H](O)CO)C(O)=C1O [Ascorbic acid, ascorbic acid, reference compound]
Result :: 29.64%

Query :: Would you mind doing [Cu+2].[O-]c1ccccc1N=Cc1ccc(N2CCOCC2)cc1.[O-]c1ccccc1N=Cc1ccc(N2CCOCC2)cc1.c1cnc2c(c1)ccc1cccnc12 [(1b), [Cu^II(L)2(phen)]] as well?
Result :: 08.45%

Where do the numbers come from? From paper PMC9775322.
